B1: tRNA (parent)
chain: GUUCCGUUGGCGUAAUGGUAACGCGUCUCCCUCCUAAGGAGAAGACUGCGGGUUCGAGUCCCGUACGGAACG

variants of: B1; assay: yeast fitness relative to wild type (ratio to wild type); higher = fitter; tRNA-Arg(CCU), competitive growth, 37 C, YPD
Variants at the floor of the assay were thinned out.
Examples of variants with documented yeast fitness follow.

Previously resolved entries follow.
{"columns": ["mutation", "endpoint", "meas-value"],
 "data": [
  ["A43U U47C C55A", "yeast fitness", "≤ 0.5"],
  ["A15G U35C A36G A37G C61G G67C", "yeast fitness", "≤ 0.5"],
  ["G6A A15C G39A A65G", "yeast fitness", "≤ 0.5"],
  ["U2C C4U G10C A57C", "yeast fitness", "≤ 0.5"],
  ["C29G C30U U47C", "yeast fitness", "≤ 0.5"]
]}

Item A21C U47A C60U G67C has what recorded yeast fitness?
≤ 0.5

Cool, now U26C A43U G50A G68A
≤ 0.5

Sourced from the RNAGym collection of RNA variant scans (doi:10.1126/science.aae0568)
